Exercise: for every item that follows, state its recorded growth inhibition.
Experiment: NCI Yeast Anticancer Drug Screen. Data for the rad14 strain (AID 159);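 further: 0% = growth of vehicle-treated control cultures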
Conditions: S. cerevisiae rad14 strain growth inhibition; at 100.0 µM; stronger effect = higher value
This is part of a sample that, as a whole, favours compounds with a hit. Of some 79,000 tested, about 15% had one in any assay.
One number for each entry, in %.

Worked examples follow.
C[CH2][Sn]([CH2]C)([O]C(=O)C(N)Cc1ccccc1)[O]C(=O)C(N)Cc1ccccc1 (configuration not stated) : 7
CCOC(=O)CC1(C(=O)OCC)c2[nH]c3ccccc3c2CCN1Cc1ccccc1 (configuration not stated) : 33
O=[N+]([O-])c1cccc2nc3ccccc3c(NCCCn3ccnc3[N+](=O)[O-])c12 : 98
Cc1ccc(NC(c2ccccc2)c2ccc3cccnc3c2O)cc1 (configuration not stated) : 2
CC1OC(O[C@H]2/C=C/C=C/C=C/C=C/C=C/C=C/C=C/[C@H](C)[C@@H](O)[C@@H](C)[C@H](C)OC(=O)C[C@H](O)C[C@H](O)CC[C@@H](O)[C@H](O)C[C@H](O)C[C@]3(O)C[C@H](O)[C@@H](C(=O)O)[C@H](C2)O3)C(O)C(N)C1O (some centres not stated) : 98
COc1ccc(C/C=N/Nc2ccc([N+](=O)[O-])cc2)cc1OC : 30
O=c1ssc(=Nc2ccccc2)n1-c1ccccc1 : 30
C=C1CC(CCCl)(c2ccccc2)OC1=O (configuration not stated) : 99

Could you report growth inhibition for every entry in the following list?
1. Oc1ccc(SCc2ccc(NCc3ccccc3)cc2)cc1
2. O=[N+]([O-])c1cc(Cl)cnc1Br
3. CC(=O)OCC1OC2OC(=O)NC2C(OC(C)=O)C1OC(C)=O (configuration not stated)
4. CC(=O)Nc1ccc2c(c1)Cc1cc(N=C3C=CC(=O)O3)ccc1-2
5. Nc1ccc(F)cc1S
6. CCc1cc(O)c(Cl)c(C)c1Cl
7. O=C1OC(OC/C(Br)=C(\Br)COC2OC(=O)C(Cl)=C2Cl)C(Cl)=C1Cl (configuration not stated)

[89, 31, 2, 99, 97, 90, 16]

Could you report growth inhibition for every entry in the following list?
1. Cc1cc(O)c(C(C)C)cc1C1(c2cc(C(C)C)c(O)cc2C)OC(=O)c2ccccc21
2. Cc1cc(N(CCOS(C)(=O)=O)CCOS(C)(=O)=O)ccc1C=Nc1ccc(-c2nc(Cc3ccccc3)sc2C)cc1
3. C=C(C(=C)n1nnc(C(=O)OC)c1C(=O)OC)n1nnc(C(=O)OC)c1C(=O)OC
4. COc1cccc2c1C(=O)c1c(O)c3c(c(O)c1C2=O)C[C@@](O)(C(C)=O)C[C@@H]3OC1CC(OC(C)=O)C(OC(C)=O)C(C)O1 (some centres not stated)
5. CCCCN(CCCC)C(=O)/C=C/c1ccccc1

1. 33
2. 96
3. 1
4. 29
5. 65

Could you report growth inhibition for every entry in the following list?
1. COC(=O)Nc1cn2ccc(C(Cl)=C(Cl)Cl)cc2n1
2. O=C1NC(=O)c2ccc([N+](=O)[O-])c3cccc1c23

[-17, 79]

----------
Assay: NCI Yeast Anticancer Drug Screen. Data for the sgs1 strain (AID 173);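 further: 0% = growth of vehicle-only control cultures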
Conditions: S. cerevisiae sgs1 mutant, at 3.7 µM, stronger effect = higher value
Compounds without any hit were thinned out: in the full panel of roughly 79,000, 15% have a hit.
Exercise: for every item that follows, state its recorded growth inhibition.
Answers are plain numbers, in %.

O=C(NCCCl)Sc1ccc(Cl)cc1 : 13
CC1OC(O[C@H]2/C=C/C=C/C=C/C=C/C=C/C=C/C=C/[C@H](C)[C@@H](O)[C@@H](C)[C@H](C)OC(=O)C[C@H](O)C[C@H](O)CC[C@@H](O)[C@H](O)C[C@H](O)C[C@]3(O)C[C@H](O)[C@@H](C(=O)O)[C@H](C2)O3)C(O)C(N)C1O (stereo partly drawn) : 50
CC1=NOC(=O)/C1=C/c1ccc2c(c1)OCO2 : 1
O=C(NNc1ccccc1)c1ccc(Cl)c(Cl)c1 : -3

Could you report growth inhibition for every entry in the following list?
1. Cc1ccc(NCCNCCO)c2c(=O)c3cc(O)ccc3sc12
2. O=C1C=C(Cl)C(=O)C(c2ccc(Cl)cc2)=C1
3. O=C1c2cccnc2C(=O)C2C3C=CC(C3)C12 (stereo not drawn)

1: 35; 2: 37; 3: 36

Could you report growth inhibition for every entry in the following list?
1. Cc1cc(=O)oc2c(C)c3occc(=O)c3cc12
2. C=C1CC(CCCl)(c2ccccc2)OC1=O (stereo not drawn)
3. CCN(CC)CCOc1cc(C)c2cc(Cc3ccccc3)ccc2n1
4. NC1=NNC2(C(N)=N1)c1ccccc1-c1ccccc12
5. Cc1c(C(C)C)cc(OCCO)cc1C(C)C

-2
2
3
17
-3
